# tested.target: K-Ras G12V (Homo sapiens, UniProt P01116, G12V)
# Sequence (P01116 1-188 isoform P01116-2 G12V): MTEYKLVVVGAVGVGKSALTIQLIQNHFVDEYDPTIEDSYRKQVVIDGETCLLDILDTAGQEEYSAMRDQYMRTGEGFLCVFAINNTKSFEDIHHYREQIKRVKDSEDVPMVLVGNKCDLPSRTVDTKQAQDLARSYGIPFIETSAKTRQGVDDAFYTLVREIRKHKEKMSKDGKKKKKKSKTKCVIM
# test.method.notes: HTRF resonance energy transfer assay, K-Ras G12V / SOS1 interaction
# experimental.conditions: HTRF assay of Example 5; read-out: IC50 against K-Ras G12V
measurement.name: IC50

Completed entries (count: 2):
INSERT INTO results (molecule, tested_target, measurement_name, endpoint_result) VALUES
  ('C[C@H]1CN(CC(F)F)c2nc(OC[C@@]34CCCN3C[C@H](F)C4)nc3c(F)c(-c4ccc(F)c5sc(N)c(C#N)c45)c(Cl)c(c23)O1', 'K-Ras G12V (Homo sapiens, UniProt P01116, G12V)', 'IC50', '< 100 nM'),
  ('CC(C)(O)[C@H]1COc2c(Cl)c(-c3ccc(F)c4sc(N)c(C#N)c34)c(F)c3nc(OC[C@@]45CCCN4C[C@H](F)C5)nc(c23)N1C1CCOC1 (stereo partly drawn)', 'K-Ras G12V (Homo sapiens, UniProt P01116, G12V)', 'IC50', '< 100 nM');

We next turn to a different molecule, shown below.
Ask: Query: IC50; subject: N#Cc1c(N)sc2c(F)ccc(-c3c(Cl)c4c5c(nc(OC[C@@]67CCCN6C[C@H](F)C7)nc5c3F)N(C3CC3)CCO4)c12
Reply: < 100 nM

meta.source: patent US12209102B2
